The reported measurements were obtained from ChEMBL document CHEMBL1806371.

System: Leishmania infantum
Test: Antileishmanial activity against Leishmania infantum MCAN/ES/89/IPZ229/1/89 promastigotes assessed as growth inhibition at 6.25 uM after 24 hrs
Assay type: functional
Form field: GI (one value per entry).
Dear colleague, please return just the value in %, with no unit written.

N#C[Se]Cc1ccc(Br)cc1
49.2
N#C[Se]CCc1ccc([N+](=O)[O-])cc1
46.6
Nc1ccc([Se][Se]c2ccc(N)cc2)cc1
95.8
N#C[Se]Cc1cccc([N+](=O)[O-])c1
47.2
O=[N+]([O-])c1ccc(CC[Se][Se]CCc2ccc([N+](=O)[O-])cc2)cc1
1.2

GI measured on CSc1ccc(C[Se]C#N)cc1 = 77.3

GI measured on N#C[Se]Cc1ccc(C(F)(F)F)cc1 = 79.4

GI measured on N#C[Se]Cc1ccc(C#N)cc1 = 51.5

GI measured on N#C[Se]Cc1ccc2ccccc2c1 = 37.1

GI measured on N#Cc1cccc(C[Se][Se]Cc2cccc(C#N)c2)c1 = 22.6

GI measured on N#Cc1ccc(C[Se][Se]Cc2ccc(C#N)cc2)cc1 = 10.9

GI measured on N#C[Se]Cc1ccccc1[N+](=O)[O-] = 74

GI measured on N#Cc1ccccc1C[Se][Se]Cc1ccccc1C#N = 7.3

* * *

Test system: Leishmania infantum
Assay: Antileishmanial activity against Leishmania infantum MCAN/ES/89/IPZ229/1/89 promastigotes assessed as growth inhibition at 25 uM after 24 hrs
Format: functional
Form field: GI (one value per entry).
Dear colleague, please return just the value in %, with no unit written.

Check out these entries, answers already filled in.
N#Cc1ccc(C[Se][Se]Cc2ccc(C#N)cc2)cc1
32.8
CSc1ccc(C[Se]C#N)cc1
97.2

In the following, a different molecule is considered.
GI measured on O=[N+]([O-])c1ccc(CC[Se][Se]CCc2ccc([N+](=O)[O-])cc2)cc1 = 28.4

* * *

Assay: Human intestinal absorption in human
Format: ADME, organism-based
Details: read-out: HIA
Readout Kind: Fa (%)
Dear colleague, please return just the value in %, with no unit written.

Check out these entries, answers already filled in.
O=[N+]([O-])c1ccc(C[Se][Se]Cc2ccc([N+](=O)[O-])cc2)cc1
98.3
Nc1ccc([Se][Se]c2ccc(N)cc2)cc1
97.6
CCCCCCCCCCCCCCCCCCOCC(COP(=O)([O-])OCC[N+](C)(C)C)OC (stereo unspecified)
98.4
c1ccc(C[Se][Se]Cc2ccccc2)cc1 [BISBENZYLDISELENIDE]
100

Fa measured on CCCCCCCCCCCCCCCCOP(=O)([O-])OCC[N+](C)(C)C = 99

Fa measured on CN(C)c1ccc([Se][Se]c2ccc(N(C)C)cc2)cc1 = 100

* * *

Form field: pIC50 (one value per entry).
System: Jurkat
Test: Cytotoxicity against human Jurkat cells assessed as live cells in neubauer chamber after 24 hrs by trypan blue assay
Assay type: cell-based
By convention, pIC50 is the negative base-10 log of a molar concentration.

Check out these entries, answers already filled in.
N#C[Se]Cc1ccccc1 [BENZYLSELENOCYANATE]
4.97
O=[N+]([O-])c1ccc(C[Se][Se]Cc2ccc([N+](=O)[O-])cc2)cc1
4.57
Cc1ccc(C[Se]C#N)cc1
4.84
CN(C)c1ccc([Se]C#N)cc1
4.53

In the following, a different compound is considered.
pIC50 measured on Nc1ccc([Se][Se]c2ccc(N)cc2)cc1 = 4.92
